# System: human PCSK9 / human LDLR EGFa domain interaction (Homo sapiens (Human), UniProt Q8NBP7)
# Sequence (Q8NBP7 153-692): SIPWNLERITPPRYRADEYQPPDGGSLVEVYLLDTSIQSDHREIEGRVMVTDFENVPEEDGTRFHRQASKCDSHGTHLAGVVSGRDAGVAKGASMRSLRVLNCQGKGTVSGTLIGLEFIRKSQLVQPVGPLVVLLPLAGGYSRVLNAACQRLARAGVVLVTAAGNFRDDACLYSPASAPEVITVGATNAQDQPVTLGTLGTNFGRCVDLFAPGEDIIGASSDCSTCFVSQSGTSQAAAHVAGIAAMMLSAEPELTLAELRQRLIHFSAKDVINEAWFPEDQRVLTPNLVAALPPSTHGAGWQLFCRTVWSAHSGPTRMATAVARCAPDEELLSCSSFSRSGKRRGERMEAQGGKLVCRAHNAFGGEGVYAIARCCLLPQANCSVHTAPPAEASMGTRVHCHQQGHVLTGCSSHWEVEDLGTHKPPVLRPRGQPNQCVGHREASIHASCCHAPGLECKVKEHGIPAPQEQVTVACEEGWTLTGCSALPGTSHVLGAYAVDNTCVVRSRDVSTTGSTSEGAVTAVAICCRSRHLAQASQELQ
# Sequence (Q8NBP7 31-152 partner): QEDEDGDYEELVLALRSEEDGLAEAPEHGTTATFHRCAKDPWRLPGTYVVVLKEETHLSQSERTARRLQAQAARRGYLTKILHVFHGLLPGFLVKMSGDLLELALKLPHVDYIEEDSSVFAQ
# Measurement Protocol: TR-FRET assay of inhibition of the PCSK9-LDLR protein-protein interaction
# Type: binding
# Test Context: TR-FRET, 20 nM human PCSK9, 20 nM human LDLR EGFa domain, 2 hours room temperature; read-out: IC50
pIC50: −log10 of the molar value. Starred links: 1 amine or outer side, 2 acyl side, 3 side chain; linkers in the order of their positions; H or OH if unused. Positions of bridges follow the written chain, without caps; N, C: chain ends. Non-standard residues stand in square brackets, D forms with d. Residues, ends and D or L forms follow the SMILES beside them. Pro(3R,4S-CMe2) = CC1(C)[C@@H]2[C@@H](C(=O)O)NC[C@@H]21; Pyridine(2,6-diCH2) = c1cc(C[*:1])nc(C[*:2])c1; Trp(5-F) = N[C@@H](Cc1c[nH]c2ccc(F)cc12)C(=O)O; mXylylene(5-F) = Fc1cc(C[*:1])cc(C[*:2])c1; Pro(cis-4-F) = O=C(O)[C@@H]1C[C@H](F)CN1; Dip = N[C@H](C(=O)O)C(c1ccccc1)c1ccccc1; X36 = O=C([C@H](CC1=NC=NC1)N[*:1])[*:2]; X4 = O=C(CCSCc1cccc(CSCCN[*:1])c1)[*:2]; mXylylene = c1cc(C[*:1])cc(C[*:2])c1; AEF = NCCOc1ccc(C[C@H](N)C(=O)O)cc1; NMeL = CN[C@@H](CC(C)C)C(=O)O; αMeP = C[C@@]1(C(=O)O)CCCN1; Aib = CC(C)(N)C(=O)O; Mpa = O=C(O)CCS; Sar = CNCC(=O)O
Property Label: pIC50

The examples below pair each entry with its known result.
Query: What value of pIC50 has been reported for the following molecule? CC1(C)[C@@H]2[C@H]3C(=O)N[C@H](C(N)=O)CSCc4cccc(c4)CSCCC(=O)N[C@@H](CCCCN)C(=O)NCC(=O)N[C@@H](Cc4c[nH]c5ccc(F)cc45)C(=O)N[C@@H](Cc4c[nH]c5ccc(F)cc45)C(=O)N[C@@H](CC(=O)O)C(=O)N[C@@H](Cc4c[nH]cn4)C(=O)N[C@@H](Cc4ccc(O)cc4)C(=O)N3C[C@@H]21 [Compound 201] ([Mpa]KG[Trp(5-F)][Trp(5-F)]DHY[Pro(3R,4S-CMe2)]C-NH2; linker 1-10 via mXylylene)
Reply: 4.92 to 6.00

Query: What value of pIC50 has been reported for the following molecule? COc1ccc(C[C@@H]2NC(=O)[C@H](C(C)C)NC(=O)[C@@H]3CCCN3C(=O)[C@H](Cc3c[nH]c4ccc(F)cc34)NC(=O)[C@H](Cc3c[nH]c4ccc(F)cc34)NC(=O)[C@@H](C)NC(=O)[C@H](CCCCN)NC(=O)CCSCc3cc(F)cc(c3)CSC[C@@H](C(N)=O)NC(=O)[C@]3(C)CCCN3C2=O)cc1 [Compound 010] ([Mpa]K[dA][Trp(5-F)][Trp(5-F)]PVY(Me)[αMeP]C-NH2; linker 1-10 via mXylylene(5-F))
Reply: 7.00 to 10.00

I have 6 molecules here; please give me pIC50 for each one.
1. CC1(C)NC(=O)[C@H](Cc2ccc(O)cc2)NC(=O)[C@H](Cc2cnc[nH]2)NC(=O)[C@H](CC(=O)O)NC(=O)[C@H](Cc2c[nH]c3ccc(F)cc23)NC(=O)[C@H](Cc2c[nH]c3ccc(F)cc23)NC(=O)CNC(=O)[C@H](CCCCN)NC(=O)CCSCc2cccc(c2)CSC[C@@H](C(N)=O)NC1=O [Compound 218] ([Mpa]KG[Trp(5-F)][Trp(5-F)]DHY[Aib]C-NH2; linker 1-10 via mXylylene)
2. COc1ccc(C[C@@H]2NC(=O)[C@H]([C@@H](C)O)NC(=O)[C@@H]3C[C@H](F)CN3C(=O)[C@H](Cc3c[nH]c4ccc(F)cc34)NC(=O)[C@H](Cc3c[nH]c4ccc(F)cc34)NC(=O)[C@@H](C)NC(=O)[C@H](CCCCN)NC(=O)[C@@H](NC(C)=O)CC(=O)NCCOc3ccc(cc3)C[C@@H](C(N)=O)NC(=O)[C@]3(C)CCCN3C2=O)cc1 [Compound 067] (Ac-DK[dA][Trp(5-F)][Trp(5-F)][Pro(cis-4-F)]TY(Me)[αMeP][AEF]-NH2; lactam 1-10)
3. COc1ccc(C[C@@H]2NC(=O)[C@H]([C@@H](C)O)NC(=O)[C@@H]3CCCN3C(=O)[C@H](Cc3c[nH]c4ccc(F)cc34)NC(=O)[C@H](Cc3c[nH]c4ccc(F)cc34)NC(=O)[C@@H](C)NC(=O)[C@H](CCCCN)NC(=O)CCSCc3cccc(n3)CSC[C@@H](C(N)=O)NC(=O)[C@]3(C)CCCN3C2=O)cc1 [Compound 065] ([Mpa]K[dA][Trp(5-F)][Trp(5-F)]PTY(Me)[αMeP]C-NH2; linker 1-10 via Pyridine(2,6-diCH2))
4. CN1CC(=O)N[C@H](C(N)=O)CSCc2cccc(c2)CSCCC(=O)N[C@@H](CCCCN)C(=O)NCC(=O)N[C@@H](Cc2c[nH]c3ccc(F)cc23)C(=O)N[C@@H](Cc2c[nH]c3ccc(F)cc23)C(=O)N[C@@H](CC(=O)O)C(=O)N[C@@H](Cc2cnc[nH]2)C(=O)N[C@@H](Cc2ccc(O)cc2)C1=O [Compound 194] ([Mpa]KG[Trp(5-F)][Trp(5-F)]DHY[Sar]C-NH2; linker 1-10 via mXylylene)
5. COc1ccc(C[C@@H]2NC(=O)[C@@H]3CC/C=C\CO[C@H]4C[C@@H](C(=O)N3)N(C4)C(=O)[C@H](Cc3c[nH]c4ccc(F)cc34)NC(=O)[C@H](Cc3c[nH]c4ccc(F)cc34)NC(=O)[C@@H](C)NC(=O)[C@H](CCCCN)NC(=O)CCSCc3cccc(c3)CSC[C@@H](C(N)=O)NC(=O)[C@]3(C)CCCN3C2=O)cc1
6. COc1ccc(C[C@@H]2NC(=O)[C@@H](CC(C)C)NC(=O)[C@H]([C@@H](C)OC)NC(=O)CCSCc3cccc(c3)CSC[C@@H](C(N)=O)NC(=O)[C@]3(C)CCCN3C(=O)[C@H](Cc3ccc(OC)cc3)NC(=O)[C@H]([C@@H](C)OC)NC(=O)[C@H](CC(C)C)N(C)C(=O)[C@H](Cc3ccc(OC)cc3)NC2=O)cc1 [Compound 035] ([Mpa]T(Me)[dL]Y(Me)Y(Me)[NMeL]T(Me)Y(Me)[αMeP]C-NH2; linker 1-10 via mXylylene)

Reply:
1. 6.00 to 7.00
2. 7.00 to 10.00
3. 7.00 to 10.00
4. 4.30 to 4.68
5. 6.00 to 7.00
6. 7.00 to 10.00

I have 2 molecules here; please give me pIC50 for each one.
1. C[C@H]1NC(=O)[C@H](CC(=O)O)NC(=O)[C@H](Cc2c[nH]c3ccc(F)cc23)NC(=O)[C@H](Cc2c[nH]c3ccc(F)cc23)NC(=O)CNC(=O)[C@H](CCCCN)NC(=O)CCSCc2cccc(c2)CSC[C@@H](C(N)=O)NC(=O)[C@]2(C)CCCN2C(=O)[C@H](Cc2ccc(O)cc2)NC1=O [Compound 033] ([Mpa]KG[Trp(5-F)][Trp(5-F)]D[dA]Y[αMeP]C-NH2; linker 1-10 via mXylylene)
2. COc1ccc(C[C@@H]2NC(=O)[C@H](CC3=NC=NC3)NC(=O)[C@H](CC(=O)O)NC(=O)[C@H](Cc3c[nH]c4ccc(F)cc34)NC(=O)[C@H](C(c3ccccc3)c3ccccc3)NC(=O)[C@@H](C)NC(=O)[C@H](CCCCN)NC(=O)CCSCc3cccc(c3)CSCCNC(=O)[C@]3(C)CCCN3C2=O)cc1 [Compound 275] (cyclo(D[X36]Y(Me)[αMeP][X4]K[dA][Dip][Trp(5-F)]))

Reply:
1. 4.92 to 6.00
2. 7.00 to 10.00

====

# System: human PCSK9 / human LDLR EGFa domain interaction (Homo sapiens (Human), UniProt Q8NBP7)
# Measurement Protocol: TR-FRET assay of inhibition of the PCSK9-LDLR protein-protein interaction
# Type: binding
# Test Context: TR-FRET, 20 nM human PCSK9, 20 nM human LDLR EGFa domain, 2 hours room temperature; read-out: IC50
pIC50: −log10 of the molar value. Starred links: 1 amine or outer side, 2 acyl side, 3 side chain; linkers in the order of their positions; H or OH if unused. Positions of bridges follow the written chain, without caps; N, C: chain ends. Non-standard residues stand in square brackets, D forms with d. Residues, ends and D or L forms follow the SMILES beside them. Trp(5-F) = N[C@@H](Cc1c[nH]c2ccc(F)cc12)C(=O)O; Pro(trans-4-F) = O=C(O)[C@@H]1C[C@@H](F)CN1; mXylylene = c1cc(C[*:1])cc(C[*:2])c1; AEF = NCCOc1ccc(C[C@H](N)C(=O)O)cc1; αMeP = C[C@@]1(C(=O)O)CCCN1; Mpa = O=C(O)CCS
Property Label: pIC50

Query: What value of pIC50 has been reported for the following compound? C[C@@H](O)[C@@H]1NC(=O)[C@H](Cc2c[nH]c3ccc(F)cc23)NC(=O)[C@H](Cc2c[nH]c3ccc(F)cc23)NC(=O)CNC(=O)[C@H](CCCCN)NC(=O)CCSCc2cccc(c2)CSC[C@@H](C(N)=O)NC(=O)[C@@H]2CCCN2C(=O)[C@H](Cc2ccc(O)cc2)NC(=O)[C@H](Cc2c[nH]cn2)NC1=O [Compound 224] ([Mpa]KG[Trp(5-F)][Trp(5-F)]THYPC-NH2; linker 1-10 via mXylylene)
Reply: 6.00 to 7.00

Query: What value of pIC50 has been reported for the following compound? COc1ccc(C[C@@H]2NC(=O)[C@H](Cc3cnc[nH]3)NC(=O)[C@H](CC(=O)O)NC(=O)[C@H](Cc3c[nH]c4ccc(F)cc34)NC(=O)[C@H](Cc3c[nH]c4ccc(F)cc34)NC(=O)[C@@H](C)NC(=O)[C@H](CCCCN)NC(=O)[C@@H](NC(C)=O)CC(=O)NCCOc3ccc(cc3)C[C@@H](C(N)=O)NC(=O)[C@]3(C)CCCN3C2=O)cc1 [Compound 349] (Ac-DK[dA][Trp(5-F)][Trp(5-F)]DHY(Me)[αMeP][AEF]-NH2; lactam 1-10)
Reply: 7.00 to 10.00

Continuing:
Query: What value of pIC50 has been reported for the following compound? CO[C@H](C)[C@@H]1NC(=O)[C@@H]2C[C@@H](F)CN2C(=O)[C@H](Cc2c[nH]c3ccc(F)cc23)NC(=O)[C@H](Cc2c[nH]c3ccc(F)cc23)NC(=O)CNC(=O)[C@H](CCCCN)NC(=O)CCSCc2cccc(c2)CSC[C@@H](C(N)=O)NC(=O)[C@]2(C)CCCN2C(=O)[C@H](Cc2ccc(O)cc2)NC1=O [Compound 059] ([Mpa]KG[Trp(5-F)][Trp(5-F)][Pro(trans-4-F)]T(Me)Y[αMeP]C-NH2; linker 1-10 via mXylylene)
Reply: 6.00 to 7.00
